Reference for the values: patent US11634388B2

Test: Pharmacokinetic study in rats
Type: in vivo
Settings: male, rat, plasma, po; SD rats, intragastric 10 mg/kg, suspension in oil, mean ± SD
Structures can show the parent of a compound that is named as a salt.
Measured parameter: Tmax (h)

1) COc1cc2nccc(Oc3ccc(NC(=O)NC4CC4)c(Cl)c3)c2cc1C(N)=O [Crystal form X, lenvatinib mesylate]; 1.17

---

Assay: Pharmacokinetic study in rats
Type: in vivo
Conditions: male, rat, plasma, po; SD rats, intragastric 10 mg/kg, suspension in oil, mean ± SD
Method: About 20 mg of the test drug was taken, added into 8 mL of vegetable oil and shaken well, to prepare a 2.5 mg/mL suspension. 6 SD rats, all males, 200-220 g, provided by Chengdu Dashuo Biotechnology Co., Ltd. The rats were intragastrically administrated with 10 mg/kg of the drug. Before administration and at 5 min, 15 min, 30 min, 1 h, 2 h, 4 h, 6 h, 8 h, 24 h after administration, 0.2 mL of jugular blood was taken and placed in EDTA-K2 anticoagulant tube, centrifuged for 10 min at 3000 r/min. […]
Counter-ions that a name gives are not always drawn.
Measured parameter: Cmax (ng/mL)

1. COc1cc2nccc(Oc3ccc(NC(=O)NC4CC4)c(Cl)c3)c2cc1C(N)=O [Crystal form X, lenvatinib mesylate]; 9870
